Where these numbers come from: patent US20220112288A1

Listed binders paired with reported gMFI on SKW3 WT, anti-mFc 647
- tgt: T1, human CD4 on cells (SKW3 cells; human PBMCs) (human, UniProt P01730 26-458)
- T1 construct: whole, on cells; SKW3 CD4 knockout cells served as the negative cell line in the primary screen; also called hCD4; huCD4
- run.description: FACS confirmation, supernatant on SKW3 cells; background gMFI 3300
observable: gMFI on SKW3 WT, anti-mFc 647 (gMFI)

>>> observed_result("75110_08K12A (antibody, V domains shown, Tested as non-clonal AlivaMab Mouse Kappa hybridoma supernatant (detected with anti-mouse Fc gamma and anti-human kappa)) VH: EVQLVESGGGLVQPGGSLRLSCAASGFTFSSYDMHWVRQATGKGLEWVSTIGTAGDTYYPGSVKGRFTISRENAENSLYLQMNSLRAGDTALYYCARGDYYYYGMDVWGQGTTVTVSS VL: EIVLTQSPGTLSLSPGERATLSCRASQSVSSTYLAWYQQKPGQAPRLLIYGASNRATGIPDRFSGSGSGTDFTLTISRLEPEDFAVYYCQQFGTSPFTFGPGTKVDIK")
16600
>>> observed_result("75110_06K03A (antibody, V domains shown, Tested as non-clonal AlivaMab Mouse Kappa hybridoma supernatant (detected with anti-mouse Fc gamma and anti-human kappa)) VH: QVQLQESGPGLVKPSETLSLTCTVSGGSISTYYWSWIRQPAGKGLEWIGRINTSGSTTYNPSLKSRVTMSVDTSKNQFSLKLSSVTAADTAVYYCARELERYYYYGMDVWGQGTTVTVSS VL: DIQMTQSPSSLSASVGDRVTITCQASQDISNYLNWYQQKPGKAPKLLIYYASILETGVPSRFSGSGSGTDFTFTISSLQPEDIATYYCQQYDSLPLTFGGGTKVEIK")
33600
>>> observed_result("75110_14N19A (antibody, V domains shown, Tested as non-clonal AlivaMab Mouse Kappa hybridoma supernatant (detected with anti-mouse Fc gamma and anti-human kappa)) VH: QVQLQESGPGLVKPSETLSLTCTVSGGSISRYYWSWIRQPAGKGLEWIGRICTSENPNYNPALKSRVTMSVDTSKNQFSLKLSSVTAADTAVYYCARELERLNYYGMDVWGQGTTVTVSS VL: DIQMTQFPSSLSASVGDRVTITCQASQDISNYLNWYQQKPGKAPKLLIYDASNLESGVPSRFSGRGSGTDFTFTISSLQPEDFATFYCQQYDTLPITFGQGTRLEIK")
28600
>>> observed_result("75110_06C16A (antibody, V domains shown, Tested as non-clonal AlivaMab Mouse Kappa hybridoma supernatant (detected with anti-mouse Fc gamma and anti-human kappa)) VH: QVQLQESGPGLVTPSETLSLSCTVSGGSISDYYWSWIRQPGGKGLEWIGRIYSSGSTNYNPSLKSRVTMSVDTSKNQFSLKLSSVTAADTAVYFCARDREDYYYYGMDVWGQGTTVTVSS VL: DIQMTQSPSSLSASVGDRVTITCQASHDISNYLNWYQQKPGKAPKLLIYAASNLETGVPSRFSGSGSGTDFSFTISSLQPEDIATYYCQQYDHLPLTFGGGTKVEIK")
12100
